Reported GI50 at 60 h by item:
Assay: Cytotoxicity against human HeLa cells assessed as growth inhibition incubated for 60 hrs under normoxic condition by MTT assay
Format: cell-based

Sample answers from the record:
>  <compound>
O=C(c1ccccc1)n1cc(-c2ccccc2)c(-c2ccccc2)c1

>  <measured.result>
67.1 µM

$$$$
>  <compound>
COc1ccc(/C=C/C(=O)n2cc(-c3ccc(OC)cc3)c(-c3ccc(OC)cc3)c2)cc1

>  <measured.result>
> 100 µM

$$$$
>  <compound>
O=C(/C=C/c1ccc(O)cc1)n1cc(-c2ccc(O)cc2)c(-c2ccc(O)cc2)c1

>  <measured.result>
27.3 µM

$$$$
>  <compound>
O=C(CCc1ccc(O)cc1)n1cc(-c2ccc(O)cc2)c(-c2ccc(O)cc2)c1

>  <measured.result>
51.5 µM

$$$$
>  <compound>
COc1ccc(-c2cn(C(=O)C(O)c3ccc(OC)cc3)cc2-c2ccc(OC)cc2)cc1 (stereo not drawn)

>  <measured.result>
44.2 µM

$$$$
>  <compound>
COc1ccc(C(=O)n2cc(-c3ccc(OC)cc3)c(-c3ccc(OC)cc3)c2)cc1

>  <measured.result>
> 100 µM

$$$$
>  <compound>
O=C(Cc1ccc(O)cc1)n1cc(-c2ccc(O)cc2)c(-c2ccc(O)cc2)c1 [NEOLAMELLARIN A]

>  <measured.result>
59.5 µM

$$$$
>  <compound>
O=C(c1ccc(O)cc1)n1cc(-c2ccc(O)cc2)c(-c2ccc(O)cc2)c1

>  <measured.result>
76 µM

$$$$
>  <compound>
COc1ccc(CCC(=O)n2cc(-c3ccc(OC)cc3)c(-c3ccc(OC)cc3)c2)cc1

>  <measured.result>
> 100 µM

$$$$
>  <compound>
COc1ccc(CC(=O)n2cc(-c3ccc(OC)cc3)c(-c3ccc(OC)cc3)c2)cc1

>  <measured.result>
> 100 µM

$$$$

Read off the recorded GI50 at 60 h for O=C(c1ccccc1)n1cc(-c2ccc(O)cc2)c(-c2ccc(O)cc2)c1 32.9 µM

Read off the recorded GI50 at 60 h for COc1ccc(-c2cn(C(=O)c3ccccc3)cc2-c2ccc(OC)cc2)cc1 > 100 µM

Read off the recorded GI50 at 60 h for COc1ccc(-c2cn(C(=O)C(OC)c3ccc(OC)cc3)cc2-c2ccc(OC)cc2)cc1 (stereo not drawn) > 100 µM
